Tested on: Trametes versicolor (AGM 24)
method: Screening of fungi for enzyme activity with 4-methylumbelliferone-labelled substrates
Type: cell-based
conditions: vegetable juice medium, substrate 10 μM, 25° C., pH 5
assay-readout: Enzyme activity: amount of released 4-methylumbelliferone during 5 hours of incubation
Include the unit after the number when you answer.

Query: Output Enzyme activity: amount of released 4-methylumbelliferone during 5 hours of incubation of Cc1cc(=O)oc2cc(O[C@@H]3O[C@H](C)[C@H](O)[C@H](O)[C@H]3O)ccc12 [substrate 11, 4-methylumbelliferyl β-D-fucoside]
Reply: 0 µmol

Query: Output Enzyme activity: amount of released 4-methylumbelliferone during 5 hours of incubation of CC(=O)N[C@H]1[C@H](Oc2ccc3c(C)cc(=O)oc3c2)O[C@H](COS(=O)(=O)O)[C@@H](O)[C@@H]1O [substrate 1]
Reply: 0 µmol

Query: Output Enzyme activity: amount of released 4-methylumbelliferone during 5 hours of incubation of Cc1cc(=O)oc2cc(O[C@H]3O[C@H](C)[C@H](O)[C@H](O)[C@H]3O)ccc12 [substrate 10, 4-methylumbelliferyl α-D-fucoside]
Reply: 0 µmol
